These data points were gathered from ChEMBL document CHEMBL1152845.

Recorded IC50 for the following molecules
# assay notes: Cytotoxicity against human QSG7701 cells after 48 hrs by MTT assay
# Type: cell-based
# applied conditions: QSG7701, 48 h
reported metric: IC50

[[record]]
smiles_code = "Cl.NCCCCNCCCCNCCCCN1C(=O)c2cccc3cccc(c23)C1=O"
result = "> 50 µM"

[[record]]
smiles_code = "NCCCNCCCCNCCCN1C(=O)c2cccc3cccc(c23)C1=O"
result = "> 50 µM"


----------
# Test system: K562
# assay notes: Cytotoxicity against human K562 cells after 48 hrs by MTT assay
# Type: functional, cell-based
# applied conditions: K562, 48 h
Recorded IC50 for the following compounds
reported metric: IC50 (µM)

[[record]]
smiles_code = "NCCCCNCCCCNCc1c2ccccc2cc2ccccc12"
reported_metric = "IC50"
cmp = "="
numeric_result = 0.95

[[record]]
smiles_code = "NCCCNCCCCN1C(=O)c2cccc3cccc(c23)C1=O"
reported_metric = "IC50"
cmp = "="
numeric_result = 11.4

[[record]]
smiles_code = "O=C1NC(=O)c2cccc3cccc1c23"
reported_metric = "IC50"
cmp = ">"
numeric_result = 50

[[record]]
smiles_code = "NCCCNCCCCNCCCN1C(=O)c2cccc3cccc(c23)C1=O"
reported_metric = "IC50"
cmp = "="
numeric_result = 1.64

[[record]]
smiles_code = "Cl.NCCCCNCCCCNCCCCN1C(=O)c2cccc3cccc(c23)C1=O"
reported_metric = "IC50"
cmp = "="
numeric_result = 1.16

[[record]]
smiles_code = "NCCCCNCCCCNCCCN1C(=O)c2cccc3cccc(c23)C1=O"
reported_metric = "IC50"
cmp = "="
numeric_result = 9.08

[[record]]
smiles_code = "NCCCNCCCCNCCCCN1C(=O)c2cccc3cccc(c23)C1=O"
reported_metric = "IC50"
cmp = "="
numeric_result = 3.84

